Species on record: Cavia porcellus
Test: Relative agonist molar potency on the electrically stimulated guinea pig myenteric plexus longitudinal muscle preparation at 10e-6; Inactive
Format: functional
Settings: Muscle tissue
Calls of active or inactive are those of the source. The rule behind the calls is not given here.
OUTCOME MEASURE: outcome

test_smiles=C=CC[C@@H]1CN(C)CC[C@@]1(OC(=O)CC)c1cccc(O)c1 experimental_result=inactive
test_smiles=CCC[C@@H]1CN(C)CC[C@@]1(OC(=O)CC)c1cccc(O)c1 experimental_result=inactive
test_smiles=C=CC[C@@H]1CN(CC=C)CC[C@@]1(OC(=O)CC)c1cccc(O)c1 experimental_result=inactive
test_smiles=CCC[C@H]1CN(C)CC[C@@]1(OC(=O)CC)c1cccc(O)c1 experimental_result=inactive
test_smiles=C=CC[C@H]1CN(C)CC[C@@]1(OC(=O)CC)c1cccc(O)c1 experimental_result=inactive
test_smiles=C=CC[C@H]1CN(C)CC[C@@]1(OC(=O)CC)c1cccc(OC)c1 experimental_result=inactive
test_smiles=C=CC[C@H]1CN(CC=C)CC[C@@]1(OC(=O)CC)c1cccc(O)c1 experimental_result=inactive

====

Species on record: Cavia porcellus
Experiment: Relative agonist molar potency on the electrically stimulated guinea pig myenteric plexus longitudinal muscle preparation
Assay type: functional, Muscle tissue
Catalogue of molecules with associated Potency
OUTCOME MEASURE: Potency

test_smiles=C=CC[C@@H]1CN(C)CC[C@@]1(OC(=O)CC)c1ccccc1 outcome_measure=Potency experimental_result=4.51
test_smiles=C=CC[C@@H]1CN(CC=C)CC[C@@]1(OC(=O)CC)c1cccc(OC)c1 outcome_measure=Potency experimental_result=0.033
test_smiles=C=CC[C@@H]1CN(C)CC[C@@]1(OC(=O)CC)c1cccc(OC)c1 outcome_measure=Potency experimental_result=0.12
test_smiles=CCC(=O)OC1(c2cccc(O)c2)CCN(C)CC1 outcome_measure=Potency experimental_result=0.011

====

The entries below come with measured Kb values attached.
Species on record: Mus musculus
Experiment: Narcotic antagonistic potency evaluated by morphine-induced Straub tail phenomenon in mice
Assay type: functional, organism-based
Details: read-out: pA2 (converted)
OUTCOME MEASURE: Kb

test_smiles=C=CC[C@@H]1CN(CC=C)CC[C@@]1(OC(=O)CC)c1cccc(OC)c1 experimental_result="≥ 1000 nM"
test_smiles=C=CC[C@@H]1CN(C)CC[C@@]1(OC(=O)CC)c1cccc(OC)c1 experimental_result="≥ 1000 nM"
test_smiles=C=CC[C@H]1CN(C)CC[C@@]1(OC(=O)CC)c1cccc(OC)c1 experimental_result="≥ 1000 nM"
test_smiles=CCC(=O)OC1(c2cccc(O)c2)CCN(C)CC1 experimental_result="≥ 1000 nM"
test_smiles=C=CC[C@@H]1CN(C)CC[C@@]1(OC(=O)CC)c1ccccc1 experimental_result="≥ 1000 nM"
test_smiles=C=CC[C@H]1CN(CC=C)CC[C@@]1(OC(=O)CC)c1cccc(O)c1 experimental_result="≥ 1000 nM"
test_smiles=CCC[C@H]1CN(C)CC[C@@]1(OC(=O)CC)c1cccc(O)c1 experimental_result="≥ 1000 nM"
test_smiles=C=CC[C@@H]1CN(CC=C)CC[C@@]1(OC(=O)CC)c1cccc(O)c1 experimental_result="≥ 1000 nM"
test_smiles=CCC[C@@H]1CN(C)CC[C@@]1(OC(=O)CC)c1cccc(O)c1 experimental_result="≥ 1000 nM"
test_smiles=C=CC[C@H]1CN(C)CC[C@@]1(OC(=O)CC)c1cccc(O)c1 experimental_result="≥ 1000 nM"
test_smiles=C=CC[C@@H]1CN(C)CC[C@@]1(OC(=O)CC)c1cccc(O)c1 experimental_result="≥ 1000 nM"
